- protocol details: Compound was tested for the approximate analgesic lethal dose (ALD50) on rats
- Assay type: ADME, organism-based
- study conditions: rat, in vivo; read-out: ALD50

| structure as smiles | LD50 |
| --- | --- |
| NCc1cccc(N2CCc3ccccc32)c1 | > 100 mg/kg |

###

- Test system: Mus musculus
- protocol details: Inhibition of PQW-writhing in mice on subcutaneous administration at dose 10 mg/kg
- Type: functional
- study conditions: sc
Hi! Could you tag entries with ED50 below 4 mg/kg as 1.0, and those at or above as 0.0? Much appreciated.

| compound | tested on | label class |
| --- | --- | --- |
| NCc1cccc(-n2ccc3ccccc32)c1 | Mus musculus | 0.0 |
| NCc1cccc(N2CCc3cc(Cl)ccc32)c1 | Mus musculus | 0.0 |
| NCc1ccccc1N1CCc2ccccc21 | Mus musculus | 0.0 |
| CC(C)=CCN1CC[C@]2(C)c3cc(O)ccc3C[C@H]1[C@H]2C [(+)-PENTAZOCINE] | Mus musculus | 1.0 |
| NCc1cccc(N2CCc3ccccc32)c1 | Mus musculus | 0.0 |
| NCc1cccc(CN2CCc3cc(Cl)ccc32)c1 | Mus musculus | 0.0 |

Where do these numbers come from? They come from ChEMBL document CHEMBL1122935.
